Where these numbers come from: patent US20260116910A1

biological target: MRGPRX4 (Homo sapiens); assay: MRGPRX4 activation, Fluo-8 Ca2+ FLIPR assay in HEK293T cells stably expressing MRGPRX4; assay type: cell-based; details: Conc. (Log[M]) −5.4
Sequence (Q96LA9 whole entry): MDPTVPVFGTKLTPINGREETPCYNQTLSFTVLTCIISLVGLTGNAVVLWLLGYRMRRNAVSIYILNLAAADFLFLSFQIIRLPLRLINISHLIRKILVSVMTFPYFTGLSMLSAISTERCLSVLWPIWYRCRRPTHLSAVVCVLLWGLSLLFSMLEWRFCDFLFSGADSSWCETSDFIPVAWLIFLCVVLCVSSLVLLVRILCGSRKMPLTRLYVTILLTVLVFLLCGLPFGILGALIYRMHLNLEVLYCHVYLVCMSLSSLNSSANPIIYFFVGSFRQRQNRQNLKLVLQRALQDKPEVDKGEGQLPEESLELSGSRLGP
Please use yes whenever MRGPRX4 activation, fluorescence change (dF/F0), Average is not below 0.02, and no whenever it is.

query-smiles | experimental-target | assigned-category
CC[C@H]1[C@@H](O)[C@@H]2[C@H](CC[C@]3(C)[C@@H]([C@H](C)CCNC(=O)NS(=O)(=O)c4ccc(C(C)(C)C#N)cc4)CC[C@@H]23)[C@@]2(C)CCCC[C@@H]12 | MRGPRX4 (Homo sapiens) | no
CC[C@H]1[C@@H](O)[C@@H]2[C@H](CC[C@]3(C)[C@@H]([C@H](C)CCNC(=O)NS(=O)(=O)c4cc(F)cc(F)c4)CC[C@@H]23)[C@@]2(C)CCCC[C@@H]12 | MRGPRX4 (Homo sapiens) | no
CC[C@H]1[C@@H](O)[C@@H]2[C@H](CC[C@]3(C)[C@@H]([C@H](C)CCNC(=O)NS(=O)(=O)c4ccc(C(C)(C)CN)cc4)CC[C@@H]23)[C@@]2(C)CCCC[C@@H]12 | MRGPRX4 (Homo sapiens) | yes
CC[C@H]1[C@@H](O)[C@@H]2[C@H](CC[C@]3(C)[C@@H]([C@H](C)CCNC(=O)NS(=O)(=O)c4ccc(C5(CO)CCCC5)cc4)CC[C@@H]23)[C@@]2(C)CCCC[C@@H]12 | MRGPRX4 (Homo sapiens) | no
CC[C@H]1[C@@H](O)[C@@H]2[C@H](CC[C@]3(C)[C@@H]([C@H](C)CCNC(=O)NS(=O)(=O)c4ccc(C(C)(CO)CO)cc4)CC[C@@H]23)[C@@]2(C)CCCC[C@@H]12 | MRGPRX4 (Homo sapiens) | no

====

target: MRGPRX4 (Homo sapiens); experiment: MRGPRX4 activation, Fluo-8 Ca2+ FLIPR assay in HEK293T cells stably expressing MRGPRX4; assay type: cell-based; settings: MRGPRX4 activation, Ca2+ fluorescence; no activation in tested range reported as III; read-out: Activity (EC50 μM)
Listed compounds paired with reported EC50

compound | EC50
[2H]C1([2H])CC[C@@]2(C)[C@@H](C1)[C@@H](CC)[C@@H](O)[C@@H]1[C@@H]2CC[C@]2(C)[C@@H]([C@H](C)CCNC(=O)NS(=O)(=O)c3ccc(C(C)(C)CF)cc3)CC[C@@H]12 | > 100 µM
CC[C@H]1[C@@H](O)[C@@H]2[C@H](CC[C@]3(C)[C@@H]([C@H](C)CC(=O)NS(=O)(=O)C(C)(C)C)CC[C@@H]23)[C@@]2(C)CCCC[C@@H]12 | > 100 µM
C[C@H](CCCCC(=O)O)[C@H]1CC[C@H]2[C@@H]3CC[C@@H]4C[C@H](O)CC[C@]4(C)[C@H]3CC[C@]12C | < 50 µM
CC[C@H]1[C@@H](O)[C@@H]2[C@H](CC[C@]3(C)[C@@H]([C@H](C)CCNC(=O)C(=O)NS(=O)(=O)c4cc(F)ccc4F)CC[C@@H]23)[C@@]2(C)CCCC[C@@H]12 | > 100 µM
CC[C@H]1[C@@H](O)[C@@H]2[C@H](CC[C@]3(C)[C@@H]([C@H](C)CCC(=O)O)CC[C@@H]23)[C@@]2(C)CC[C@@H](O)C[C@@H]12 [OCA, obeticholic acid, reference compound] | < 50 µM
C[C@H](CCCO)[C@H]1CC[C@H]2[C@@H]3CC[C@@H]4CCCC[C@]4(C)[C@H]3CC[C@]12C | > 100 µM
CC[C@H]1[C@@H](O)[C@@H]2[C@H](CC[C@]3(C)[C@@H]([C@H](C)CCNS(=O)(=O)c4cc(F)ccc4F)CC[C@@H]23)[C@@]2(C)CCCC[C@@H]12 | > 100 µM
CCOC(=O)C(=O)NCC[C@@H](C)[C@H]1CC[C@H]2[C@@H]3[C@H](O)[C@H](CC)[C@@H]4CCCC[C@]4(C)[C@H]3CC[C@]12C | > 100 µM
CC[C@H]1[C@@H](O)[C@@H]2[C@H](CC[C@]3(C)[C@@H]([C@H](C)CCNC(=S)NS(=O)(=O)c4ccc(C(C)(C)CF)cc4)CC[C@@H]23)[C@@]2(C)CCC(F)(F)C[C@@H]12 | > 100 µM
CC[C@H]1[C@@H](O)[C@@H]2[C@H](CC[C@]3(C)[C@@H]([C@H](C)CCNC(=O)C(=O)NS(=O)(=O)c4ccc(C(C)(C)CF)cc4)CC[C@@H]23)[C@@]2(C)CCCC[C@@H]12 | > 100 µM
CC[C@H]1[C@@H](O)[C@@H]2[C@H](CC[C@]3(C)[C@@H]([C@H](C)CO)CC[C@@H]23)[C@@]2(C)CCCC[C@@H]12 | > 100 µM
